Values from patent US11090319B2

Target: various β-lactamases (bacterial lysates) (Pseudomonas aeruginosa)
Sequence (P14489 20-266): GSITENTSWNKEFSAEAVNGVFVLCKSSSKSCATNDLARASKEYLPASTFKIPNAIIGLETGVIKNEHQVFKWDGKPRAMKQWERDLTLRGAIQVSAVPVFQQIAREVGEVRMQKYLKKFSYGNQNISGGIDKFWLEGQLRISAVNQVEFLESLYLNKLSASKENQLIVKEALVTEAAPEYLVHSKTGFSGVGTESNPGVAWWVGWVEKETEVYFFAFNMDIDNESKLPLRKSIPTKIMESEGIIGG
Assay: biochemical
Conditions: AZT IC50 KP1007 OXA-10
pIC50: −log10 of the molar value.
Parameter pIC50: see the listing below.

Test system various β-lactamases (bacterial lysates) (Pseudomonas aeruginosa); read-out pIC50; what value for C[C@]1(Cn2ccnn2)[C@H](C(=O)O)N2C(=O)C[C@H]2S1(=O)=O [Tazobactam, reference compound] ?
4.83

Queued: N=C(N)NCCC[C@@H](N)C(=O)N[C@H]1CC[C@@H](CC(=O)O)OB1O [Compound 47]
< 5.22

Also O=C(O)C[C@@H]1CC[C@H](NC(=O)c2ccccc2)B(O)O1 [Compound 37] ?
5.14 to 5.74

* * *

Target: various β-lactamases (bacterial lysates) (Klebsiella pneumoniae)
Assay: biochemical
Assay type: biochemical
Settings: lysate KP1008 KPC-2; aztreonam cleavage; read-out: AZT IC50 KP1008 KPC-2
pIC50: −log10 of the molar value.
Below, each entry is listed alongside its reported pIC50.

Examples with their reported pIC50 follow.
{"compound": "NC(Cc1cccnc1)C(=O)N[C@H]1CC[C@@H](CC(=O)O)OB1O (stereo partly shown)", "experimental-readout": "pIC50", "recorded-result": "> 5.81"}
{"compound": "O=C(O)C[C@@H]1CC[C@H](NC(=O)C[C@@H]2CCCCN2)B(O)O1", "experimental-readout": "pIC50", "recorded-result": "5.17 to 5.78"}
{"compound": "O=C(O)C[C@@H]1CC[C@H](NC(=O)C[C@H]2CCCCN2)B(O)O1", "experimental-readout": "pIC50", "recorded-result": "5.17 to 5.78"}
{"compound": "O=C(O)C[C@@H]1CC[C@H](NC(=O)Cc2cccs2)B(O)O1", "experimental-readout": "pIC50", "recorded-result": "> 5.77"}
{"compound": "Cc1nc2ccccc2n1CCC(=O)N[C@H]1CC[C@@H](CC(=O)O)OB1O", "experimental-readout": "pIC50", "recorded-result": "> 5.86"}
{"compound": "N[C@H]1CC[C@@H](CC(=O)N[C@H]2CC[C@@H](CC(=O)O)OB2O)CC1", "experimental-readout": "pIC50", "recorded-result": "> 5.80"}
{"compound": "N=C(N)NCCC[C@@H](N)C(=O)N[C@H]1CC[C@@H](CC(=O)O)OB1O", "experimental-readout": "pIC50", "recorded-result": "5.22 to 5.82"}
{"compound": "O=C(O)C[C@@H]1CC[C@H](NC(=O)[C@@H]2CCCCN2)B(O)O1", "experimental-readout": "pIC50", "recorded-result": "5.15 to 5.75"}

Fill in: pIC50 of O=C(O)C[C@@H]1CC[C@H](NC(=O)CCc2ccccc2)B(O)O1 is ___
> 5.79

Please give the result for O=C(O)CC1CCC[C@H](NC(=O)Cc2cccs2)B(O)O1 (stereo partly shown) too.
5.19 to 5.79

* * *

Target: various β-lactamases (bacterial lysates) (Klebsiella pneumoniae, UniProt Q9F663)
Sequence (Q9F663 whole entry, looked up): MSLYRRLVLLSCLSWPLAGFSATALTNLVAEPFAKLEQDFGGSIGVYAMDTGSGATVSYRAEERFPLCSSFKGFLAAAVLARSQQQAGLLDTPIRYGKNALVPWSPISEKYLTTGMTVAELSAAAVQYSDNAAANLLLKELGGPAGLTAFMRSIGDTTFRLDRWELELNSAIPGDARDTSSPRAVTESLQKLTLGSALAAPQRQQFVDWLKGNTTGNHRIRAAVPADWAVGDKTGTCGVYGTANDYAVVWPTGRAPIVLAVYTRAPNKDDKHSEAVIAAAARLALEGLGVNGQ
Assay: biochemical
Type: biochemical
Settings: lysate KP1008 KPC-2; aztreonam cleavage; read-out: AZT IC50 KP1008 KPC-2
experimental-readout: IC50

Fill in the blank: the reported IC50 of O=C(O)C[C@@H]1CC[C@H](NC(=O)[C@H]2Cc3ccccc3CN2)B(O)O1 is ____.
< 1510 nM

* * *

Readings of IC50 for the listed molecules
Molecular target: various β-lactamases (bacterial lysates) (Salmonella typhimurium)
Sequence (P0A1V8 22-275): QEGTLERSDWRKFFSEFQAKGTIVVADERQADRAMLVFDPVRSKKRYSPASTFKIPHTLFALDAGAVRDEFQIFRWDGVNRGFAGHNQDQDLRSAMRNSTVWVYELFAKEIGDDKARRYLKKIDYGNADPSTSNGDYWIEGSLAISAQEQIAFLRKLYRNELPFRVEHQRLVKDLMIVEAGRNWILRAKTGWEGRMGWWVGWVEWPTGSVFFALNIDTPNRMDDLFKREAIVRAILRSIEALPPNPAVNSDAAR
Assay: biochemical
Details: AZT IC50 KPX1001 OXA-2

Sample records with IC50:
{"molecule": "Cc1nc2ccccc2n1CCC(=O)N[C@H]1CC[C@@H](CC(=O)O)OB1O [Compound 55]", "experimental-readout": "IC50", "recorded-result": "1.39 to 5.57 µM"}
{"molecule": "O=C(O)C[C@@H]1CC[C@H](NC(=O)CCc2nnc(-c3ccccc3)o2)B(O)O1 [Compound 60]", "experimental-readout": "IC50", "recorded-result": "1.34 to 5.36 µM"}
{"molecule": "O=C(O)CC1CCC[C@H](NC(=O)Cc2cccs2)B(O)O1 (some centres unmarked) [Compound 63]", "experimental-readout": "IC50", "recorded-result": "1.61 to 6.43 µM"}
{"molecule": "NC(Cc1cccnc1)C(=O)N[C@H]1CC[C@@H](CC(=O)O)OB1O (some centres unmarked) [Compound 42]", "experimental-readout": "IC50", "recorded-result": "> 6.23 µM"}
{"molecule": "CCOC(=O)C[C@@H]1CC[C@H](NC(=O)Cc2cccs2)B(O)O1 [Compound 65]", "experimental-readout": "IC50", "recorded-result": "1.54 to 6.15 µM"}
{"molecule": "N[C@H](C(=O)N[C@H]1CC[C@@H](CC(=O)O)OB1O)c1ccccc1 [Compound 33]", "experimental-readout": "IC50", "recorded-result": "1.63 to 6.53 µM"}
{"molecule": "CC(C)(O/N=C(\\C(=O)N[C@H]1CC[C@@H](CC(=O)O)OB1O)c1csc(N)n1)C(=O)O [Compound 36]", "experimental-readout": "IC50", "recorded-result": "> 4.67 µM"}

Need IC50, item O=C(O)[C@H]1/C(=C/CO)O[C@@H]2CC(=O)N21 [Clavulanic Acid, reference compound]
0.402 µM

* * *

System: strains expressing class A ESBLs
Assay type: cell-based
experimental-readout: MPC4 TEM-10 EC1009

Tell me reported MPC4 TEM-10 EC1009 for C[C@]1(Cn2ccnn2)[C@H](C(=O)O)N2C(=O)C[C@H]2S1(=O)=O [Tazobactam, reference compound] , tested with strains expressing class A ESBLs.
2.5 µg/mL

* * *

Test: Single dose pharmacokinetics and oral bioavailability in rats, Table 15
Type: in vivo, Sprague-Dawley (SD) rats
Details: Sprague-Dawley, rat, plasma; male SD rats, IV, 20 mg/kg
experimental-readout: half-life (h)
Give the value, in units of h, as a plain number.

Tell me the measured half-life of O=C(O)C[C@@H]1CC[C@H](NC(=O)Cc2cccs2)B(O)O1 , please.
1.56

* * *

Test: Single dose pharmacokinetics and oral bioavailability in rats, Table 15
Format: in vivo, Sprague-Dawley (SD) rats
Settings: Sprague-Dawley, rat, plasma; male SD rats, PO, 50 mg/kg; read-out: Cmax
experimental-readout: Cmax (ng/mL)
Answer in ng/mL, number only, no unit symbol.

Look at this molecule and give its reported Cmax. O=C(O)C[C@@H]1CC[C@H](NC(=O)Cc2cccs2)B(O)O1
290

* * *

Molecular target: CTX-M-14, lysate of KP1005 (Escherichia coli)
Sequence (Q9L5C7 entry or part of it): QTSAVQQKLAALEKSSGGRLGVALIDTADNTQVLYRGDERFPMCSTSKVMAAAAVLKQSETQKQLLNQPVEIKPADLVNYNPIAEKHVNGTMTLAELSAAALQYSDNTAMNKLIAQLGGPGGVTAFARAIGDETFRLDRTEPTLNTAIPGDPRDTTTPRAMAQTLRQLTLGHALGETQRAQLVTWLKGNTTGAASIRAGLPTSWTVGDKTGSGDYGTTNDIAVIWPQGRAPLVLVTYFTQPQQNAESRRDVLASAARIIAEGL
Test: Inhibition of ceftazidime hydrolysis by bacterial lysate
experimental-readout: IC50

{"compound": "O=C(O)CC1CC[C@H](NC(=O)C2CC2)B(O)O1 (some centres unmarked) [Compound 4]", "IC50": "> 4.15 µM"}
{"compound": "CC(=O)N[C@H]1CCC(CC(=O)O)OB1O (some centres unmarked) [Compound 3]", "IC50": "> 4.65 µM"}
{"compound": "O=C(O)C[C@@H]1CC[C@H](NC(=O)Cc2cccs2)B(O)O1 [Compound 5]", "IC50": "< 0.337 µM"}

IC50 for Cl.N[C@H]1CCC(CC(=O)O)OB1O (some centres unmarked) [Compound 7, hydrochloride] ?
> 4.77 µM

// same read-out, input: O=C(O)C[C@@H]1CC[C@H](NC(=O)Cc2ccccc2)B(O)O1 [Compound 6]
0.344 to 3.44 µM

* * *

Biological target: KPC-2, lysate of KP1004 (Klebsiella pneumoniae, UniProt Q9F663)
Sequence (Q9F663 25-293 limits assumed): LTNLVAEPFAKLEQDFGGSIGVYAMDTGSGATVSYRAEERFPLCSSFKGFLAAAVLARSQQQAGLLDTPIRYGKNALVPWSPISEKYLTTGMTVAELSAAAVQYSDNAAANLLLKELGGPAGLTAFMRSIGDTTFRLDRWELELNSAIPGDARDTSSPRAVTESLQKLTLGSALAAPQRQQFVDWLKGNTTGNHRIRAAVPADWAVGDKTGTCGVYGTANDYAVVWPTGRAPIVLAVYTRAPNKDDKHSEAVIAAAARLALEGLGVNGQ
Test: Inhibition of ceftazidime hydrolysis by bacterial lysate
experimental-readout: IC50

Example compounds with recorded IC50:
{"compound": "O=C(O)C[C@@H]1CC[C@H](NC(=O)Cc2ccccc2)B(O)O1", "assayed-system": "KPC-2, lysate of KP1004 (Klebsiella pneumoniae, UniProt Q9F663)", "experimental-readout": "IC50", "recorded-result": "< 344 nM"}
{"compound": "Cl.N[C@H]1CCC(CC(=O)O)OB1O (stereo partly shown) [Compound 7, hydrochloride]", "assayed-system": "KPC-2, lysate of KP1004 (Klebsiella pneumoniae, UniProt Q9F663)", "experimental-readout": "IC50", "recorded-result": "> 4770 nM"}
{"compound": "CC(=O)N[C@H]1CCC(CC(=O)O)OB1O (stereo partly shown)", "assayed-system": "KPC-2, lysate of KP1004 (Klebsiella pneumoniae, UniProt Q9F663)", "experimental-readout": "IC50", "recorded-result": "< 465 nM"}

Moving on to the next compound.
I'd like to know its IC50. The compound in question is O=C(O)CC1CC[C@H](NC(=O)C2CC2)B(O)O1 (stereo partly shown)
< 415 nM

* * *

Biological target: GES-1, lysate of pa 1063 (Klebsiella pneumoniae, UniProt Q9KJY7)
Sequence (Q9KJY7 19-287): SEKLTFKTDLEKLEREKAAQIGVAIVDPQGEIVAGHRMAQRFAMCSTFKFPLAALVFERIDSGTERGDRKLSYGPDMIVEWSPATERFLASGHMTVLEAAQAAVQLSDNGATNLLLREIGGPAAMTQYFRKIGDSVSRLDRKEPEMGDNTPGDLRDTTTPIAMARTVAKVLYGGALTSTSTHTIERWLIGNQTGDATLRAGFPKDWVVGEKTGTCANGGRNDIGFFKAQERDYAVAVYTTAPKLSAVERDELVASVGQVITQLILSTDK
Assay: Inhibition of ceftazidime hydrolysis by bacterial lysate
pIC50: −log10 of the molar value.
Reported pIC50 values for the following molecules.

{"molecule": "O=C(O)C[C@@H]1CC[C@H](NC(=O)Cc2cccs2)B(O)O1", "pIC50": "> 6.47"}

Can you share its pIC50? I mean this molecule: Cl.N[C@H]1CCC(CC(=O)O)OB1O (stereo partly drawn) [Compound 7, hydrochloride]
5.32 to 6.32

Same for O=C(O)C[C@@H]1CC[C@H](NC(=O)Cc2ccccc2)B(O)O1
5.46 to 6.46

Then this molecule: CC(=O)N[C@H]1CCC(CC(=O)O)OB1O (stereo partly drawn)
< 5.33

Query C[C@]1(Cn2ccnn2)[C@H](C(=O)O)N2C(=O)C[C@H]2S1(=O)=O [Tazobactam, reference compound] next
5.48 to 6.48

Try the molecule O=C(O)CC1CC[C@H](NC(=O)C2CC2)B(O)O1 (stereo partly drawn)
5.38 to 6.38
